This section presents molecules with their documented EC50 values.
# Test system: RSV A2 strain
# experimental.details: In vitro CPE (CytoPathic Effect) inhibition effect evaluation test, RSV type A
# Type: cell-based
# setup.conditions: human respiratory syncytial virus; inhibitory effect against RSV type A (RSV A2 strain), HEp-2 cells, CPE inhibition; read-out: EC50

Dear colleague, I am looking for the recorded EC50 of the following molecule: O=C(NC1(C(=O)O)C2CC3CC(C2)CC1C3)c1cnc(N2CC3(CCCCC3)c3cc(O[C@H]4CC[C@@H](ON=C5CC(F)(F)C5)CC4)ccc32)nc1C(F)(F)F (stereo partly drawn) 10 to 100 nM

From here, focus on the item given below.
Dear colleague, I am looking for the recorded EC50 of the following molecule: `COc1cccc(/C=C/c2ccc3c(c2)CCN3c2ncc(C(=O)NC3(C(=O)O)CCCCC3)c(C(F)(F)F)n2)c1` 10 to 100 nM
